- assayMethodText: Dose normalized Cmax in rat at 10 mg/kg, po measured upto 72 hrs by LC-MS/MS analysis
- Assay type: ADME, organism-based
- experimentalConditions: in vivo
Where a SMILES comes first, the peptide text is derived from it. [ ]: non-standard residue; d: D form. dTrp(1-Me) = Cn1cc(C[C@@H](N)C(=O)O)c2ccccc21
Below, each of the compounds is paired with its reported Cmax/dose value.
The reply should be a number in µM, with the unit left off.

Below are worked cases with known answers.
Cl.Cn1cc(C[C@@H](NC(=O)[C@@H](N)Cc2ccccc2)C(=O)O)c2ccccc21 ... 11.9
Cl.Cn1cc(C[C@@H](NC(=O)CN)C(=O)O)c2ccccc21 (H-Gly-[dTrp(1-Me)]-OH) ... 28
Cl.Cn1cc(C[C@@H](NC(=O)[C@@H](N)Cc2c[nH]c3ccccc23)C(=O)O)c2ccccc21 ... 12
CC(C)C[C@H](N)C(=O)N[C@H](Cc1cn(C)c2ccccc12)C(=O)O.Cl ... 24.4

Supply recorded Cmax/dose for Cl.Cn1cc(C[C@@H](N)C(=O)OCCC2CCNCC2)c2ccccc21 here.
2.4

Supply recorded Cmax/dose for CCOC(=O)[C@@H](Cc1cn(C)c2ccccc12)NC(=O)[C@@H](N)CC(C)C.Cl here.
16.2

Supply recorded Cmax/dose for CCOC(=O)[C@@H](Cc1cn(C)c2ccccc12)NC(=O)[C@@H](N)[C@@H](C)CC.Cl here.
12.8

Supply recorded Cmax/dose for Cl.Cn1cc(C[C@@H](N)C(=O)OCC(O)CO)c2ccccc21 (some centres undefined) here.
33.3

###

- assayMethodText: Tmax in mouse at 287 micromol/kg administered as single dose
- Assay type: ADME
- experimentalConditions: in vivo, dose 287 µmol/kg
Below, each of the compounds is paired with its reported Tmax value.
The reply should be a number in min, with the unit left off.

Supply recorded Tmax for CCOC(=O)[C@@H](Cc1cn(C)c2ccccc12)NC(=O)[C@@H](N)CC(C)C.Cl here.
30

Supply recorded Tmax for Cn1cc(C[C@@H](N)C(=O)O)c2ccccc21 here.
36

###

- assayMethodText: Toxicity in cynomolgus monkey assessed as NOAEL at 150 mg/kg, po BID administered for 28 days
- Format: organism-based, Macaca fascicularis
- experimentalConditions: in vivo, time 28 day
parameterMeasured: NOAEL at 672 h (mg/kg)
The reply should be a number in mg/kg, with the unit left off.

Supply recorded NOAEL at 672 h for CCOC(=O)[C@@H](Cc1cn(C)c2ccccc12)NC(=O)[C@@H](N)CC(C)C.Cl here.
120

###

- assayMethodText: Change in Cmax in rat at 37 umol/kg, po measured upto 72 hrs by LC-MS/MS analysis
- Format: ADME, organism-based
- experimentalConditions: in vivo, at 37 µmol/kg
Below, each of the compounds is paired with its reported Activity value.
Answer with the figure and its unit, nothing else.

Cn1cc(C[C@@H](NC(=O)[C@@H](N)CCCCN)C(=O)O)c2ccccc21.O=S(=O)(O)O ... -4%
CCOC(=O)[C@@H](Cc1cn(C)c2ccccc12)NC(=O)[C@@H](N)CCSC.O=P(O)(O)O ... 32%
Cn1cc(C[C@@H](NC(=O)[C@@H](N)CCCCN)C(=O)O)c2ccccc21.O=P(O)(O)O ... 4%
CCOC(=O)[C@@H](Cc1cn(C)c2ccccc12)NC(=O)[C@@H](N)CCSC.Cl ... 21%
CCOC(=O)[C@@H](Cc1cn(C)c2ccccc12)NC(=O)[C@@H](N)CCC(N)=O.O=S(=O)(O)O ... 20%

Supply recorded Activity for CCOC(=O)[C@@H](Cc1cn(C)c2ccccc12)NC(=O)[C@@H](N)CC(C)C.CS(=O)(=O)O here.
111%

Supply recorded Activity for CCOC(=O)[C@@H](Cc1cn(C)c2ccccc12)NC(=O)[C@@H](N)CCC(N)=O here.
5%

###

- assayMethodText: AUC (0 to 12 hrs) in rat po BID measured on day 28
- Assay type: ADME, organism-based
- Set-up: time < 12 hr, route oral
- experimentalConditions: in vivo
parameterMeasured: AUC at 12 h
Answer with the figure and its unit, nothing else.

Supply recorded AUC at 12 h for CCOC(=O)[C@@H](Cc1cn(C)c2ccccc12)NC(=O)[C@@H](N)CC(C)C.Cl here.
953 µM·h

###

Below, each of the compounds is paired with its reported remaining at 24 h value.
- assayMethodText: Stability in human plasma assessed as parent compound remaining measured after 24 hrs by LC-MS/MS analysis
- Assay type: ADME, cell-free
- experimentalConditions: read-out: Stabilty
The reply should be a number in %, with the unit left off.

Below are worked cases with known answers.
CN(C)CCOC(=O)[C@H](N)Cc1cn(C)c2ccccc12.Cl ... 2
CCOC(=O)[C@@H](Cc1cn(C)c2ccccc12)NC(=O)[C@@H](N)[C@@H](C)CC.Cl ... 16
CC(C)[C@H](N)C(=O)N[C@H](Cc1cn(C)c2ccccc12)C(=O)O.Cl ... 47
CCOC(=O)[C@@H](Cc1cn(C)c2ccccc12)NC(=O)[C@@H](N)CCC(N)=O.Cl ... 0
Cl.Cn1cc(C[C@@H](N)C(=O)OCCC2CCOCC2)c2ccccc21 ... 54

Supply recorded remaining at 24 h for Cl.Cn1cc(C[C@@H](NC(=O)[C@H](N)Cc2c[nH]c3ccccc23)C(=O)O)c2ccccc21 here.
32

Supply recorded remaining at 24 h for Cl.Cn1cc(C[C@@H](N)C(=O)OCC(O)CO)c2ccccc21 (some centres undefined) here.
11

Supply recorded remaining at 24 h for CC[C@H](C)[C@H](N)C(=O)N[C@H](Cc1cn(C)c2ccccc12)C(=O)O.Cl here.
86

Supply recorded remaining at 24 h for Cl.Cn1cc(C[C@@H](N)C(=O)OCC(N)C(=O)O)c2ccccc21 (single isomer, unassigned) here.
0

Supply recorded remaining at 24 h for Cl.Cn1cc(C[C@@H](NC(=O)[C@@H](N)CCC(N)=O)C(=O)O)c2ccccc21 here.
83

Supply recorded remaining at 24 h for CCOC(=O)[C@H](N)Cc1cn(C)c2ccccc12.Cl here.
35

Supply recorded remaining at 24 h for Cl.Cn1cc(C[C@@H](NC(=O)[C@@H](N)Cc2ccccc2)C(=O)O)c2ccccc21 here.
75

Supply recorded remaining at 24 h for Cl.Cn1cc(C[C@@H](N)C(=O)OCC2CCNCC2)c2ccccc21 here.
2

###

- assayMethodText: Chemical stability of compound in 0.1 N aqueous HCl buffer assessed as compound remaining at pH 1 at 5 uM measured after 1.5 hrs by LC-MS/MS analysis
- Format: physicochemical
- experimentalConditions: pH 1, 1.5 h
Below, each of the compounds is paired with its reported Stabilty value.
The reply should be a number in %, with the unit left off.

CCOC(=O)[C@@H](Cc1cn(C)c2ccccc12)NC(=O)[C@@H](N)[C@@H](C)CC.Cl ... 95
CC[C@H](C)[C@H](N)C(=O)N[C@H](Cc1cn(C)c2ccccc12)C(=O)O.Cl ... 92
Cl.Cn1cc(C[C@@H](N)C(=O)OCC(O)CO)c2ccccc21 (stereo not given in full) ... 37

Supply recorded Stabilty for Cl.Cn1cc(C[C@@H](N)C(=O)OCCC2CCNCC2)c2ccccc21 here.
74

Supply recorded Stabilty for Cl.Cn1cc(C[C@@H](N)C(=O)N[C@H](Cc2cn(C)c3ccccc23)C(=O)O)c2ccccc21 here.
45

###

- assayMethodText: Cmax in po BID dosed cynomolgus monkey administered for 28 days
- Type: ADME, organism-based, Macaca fascicularis
- Parameters: route oral, time 28 day
- experimentalConditions: in vivo
parameterMeasured: Cmax
Answer with the figure and its unit, nothing else.

Supply recorded Cmax for Cn1cc(C[C@@H](N)C(=O)O)c2ccccc21 [INDOXIMOD] here.
103 µM

###

- assayMethodText: Change in AUC (infinity) in rat at 37 umol/kg, po measured upto 72 hrs by LC-MS/MS analysis
- Format: ADME, organism-based
- experimentalConditions: in vivo, at 37 µmol/kg
parameterMeasured: Activity (%)
The reply should be a number in %, with the unit left off.

CCOC(=O)[C@@H](Cc1cn(C)c2ccccc12)NC(=O)[C@@H](N)CCC(N)=O.O=P(O)(O)O ... -28
CCOC(=O)[C@@H](Cc1cn(C)c2ccccc12)NC(=O)[C@@H](N)CC(C)C.O=S(=O)(O)c1ccccc1 ... 45

Supply recorded Activity for CCOC(=O)[C@@H](Cc1cn(C)c2ccccc12)NC(=O)[C@@H](N)CC(C)C.O=P(O)(O)O here.
61

Supply recorded Activity for CCOC(=O)[C@@H](Cc1cn(C)c2ccccc12)NC(=O)[C@@H](N)CCC(N)=O.CS(=O)(=O)O here.
-12

###

- assayMethodText: Cmax in female rat at 180 mg/kg, po BID measured on day 28
- Assay type: ADME, organism-based
- Design: route oral, dose 180 mg/kg
- experimentalConditions: in vivo
parameterMeasured: Cmax (µM)
The reply should be a number in µM, with the unit left off.

Supply recorded Cmax for CCOC(=O)[C@@H](Cc1cn(C)c2ccccc12)NC(=O)[C@@H](N)CC(C)C.Cl here.
170

These measurements were taken from ChEMBL document CHEMBL4837181.
